Origin of values: ChEMBL document CHEMBL3272305

Would you kindly list selectivity ratio for each of these molecules?
Assay: Therapeutic index, ratio of LD50 for albino mouse to ED50 for induction of straub tail relaxation in albino mouse
Assay type: organism-based
Conditions: in vivo, read-out: Ratio LD50/ED50
Give bare numbers.

Worked set:
molecule=O=C1CN(/N=C/c2ccc(-c3cccc(C(F)(F)F)c3)o2)C(=O)N1 observedvalue=1.4
molecule=O=C1CN(/N=C/c2ccc(-c3ccc(F)cc3)o2)C(=O)N1 observedvalue=1.5
molecule="N#Cc1ccc(-c2ccc(/C=N/N3C(=O)NC(=O)C3O)o2)cc1 (centres undefined)" observedvalue=0.14

// below: selectivity ratio requested for another molecule
Item O=C1CN(/N=C/c2ccc(-c3ccc([N+](=O)[O-])cc3)o2)C(O)=N1 [DANTROLENE] has what recorded selectivity ratio?
124
